Target System: T1, human TGFβ3, mature dimeric form (human, UniProt P10600 301-412)
T1 construct: Peprotech, expressed in E. coli; also called TGFb3
T1 sequence: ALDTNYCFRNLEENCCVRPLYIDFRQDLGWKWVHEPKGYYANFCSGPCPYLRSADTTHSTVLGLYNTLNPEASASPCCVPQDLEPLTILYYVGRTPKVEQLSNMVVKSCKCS
Method Summary: BIAcore T200
Description: For binding affinity determinations of all humanized 2A10 antibodies, Surface Plasmon Resonance (SPR) measurement with a BIAcore™-T200 instrument was used. […] Association rates (ko.) and dissociation rates (koff) were calculated using a simple one-to-one Langmuir binding model (BIAcore T200 evaluation software version 2.0) to determine the equilibrium dissociation constant (KD), which was calculated as the ratio koff/kₒₙ. […]
pKd: −log10 of the molar value.
Endpoint: pKd

1) h4A11.v7.14 (antibody, human IgG1, kappa, N297G, V domains shown) VH: EQQLQESGPGLVKPSETLSLTCTVTGFSLSSYTVNWVRQPAGKGLEWIGYISYGGSAYYASWANGRFTISKDSSKNQVSLKLSSVTAADTAVYYCARHMQVGGAPTGSMAAFDPWGPGTLVTVSS VL: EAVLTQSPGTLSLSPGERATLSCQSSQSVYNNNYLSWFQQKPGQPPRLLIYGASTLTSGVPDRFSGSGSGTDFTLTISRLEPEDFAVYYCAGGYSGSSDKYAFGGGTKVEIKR
11.26
2) 4A11 (antibody, V domains shown, anti-TGFβ2/3, recombinant rabbit monoclonal; some paragraphs print the H/L pair as 32/33; also called Rb1.4A11; Rbt 4A11) VH: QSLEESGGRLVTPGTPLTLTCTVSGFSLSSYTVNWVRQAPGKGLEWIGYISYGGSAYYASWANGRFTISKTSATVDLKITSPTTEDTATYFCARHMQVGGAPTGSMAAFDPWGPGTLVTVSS VL: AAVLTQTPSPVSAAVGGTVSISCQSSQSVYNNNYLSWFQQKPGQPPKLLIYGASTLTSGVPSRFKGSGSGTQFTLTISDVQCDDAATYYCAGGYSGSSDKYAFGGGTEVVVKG
11.92
3) h4A11.v7.5 (antibody, V domains shown) VH: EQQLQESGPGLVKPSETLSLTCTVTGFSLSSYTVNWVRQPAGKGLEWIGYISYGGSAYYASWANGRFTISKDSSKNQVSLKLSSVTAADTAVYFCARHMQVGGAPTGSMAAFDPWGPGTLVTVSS VL: EAVLTQSPGTLSLSPGERATLSCQSSQSVYNNNYLSWYQQKPGQPPRLLIYGASTLTSGVPDRFSGSGSGTDFTLTISRLEPEDFAVYYCAGGYSGSSDKYAFGGGTKVEIK
11.03
4) h4A11.v7.12 (antibody, human IgG1, kappa, N297G, V domains shown) VH: EQQLQESGPGLVKPSETLSLTCTVTGFSLSSYTVNWVRQPAGKGLEWIGYISYGGSAYYASWANGRFTISKDTSKNQVSLKLSSVTAADTAVYFCARHMQVGGAPTGSMAAFDPWGPGTLVTVSS VL: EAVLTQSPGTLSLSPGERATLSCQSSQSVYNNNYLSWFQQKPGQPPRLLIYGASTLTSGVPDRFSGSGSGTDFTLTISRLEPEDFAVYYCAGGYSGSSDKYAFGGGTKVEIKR
11.19
5) h4A11.v7.11 (antibody, human IgG1, kappa, N297G, V domains shown) VH: EQQLQESGPGLVKPSETLSLTCTVTGFSLSSYTVNWVRQPAGKGLEWIGYISYGGSAYYASWANGRFTISVDSSKNQVSLKLSSVTAADTAVYFCARHMQVGGAPTGSMAAFDPWGPGTLVTVSS VL: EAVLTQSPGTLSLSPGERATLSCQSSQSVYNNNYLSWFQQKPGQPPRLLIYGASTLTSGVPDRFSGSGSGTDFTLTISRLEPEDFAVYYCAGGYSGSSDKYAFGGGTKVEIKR
10.67
6) h4A11.v7.10 (antibody, human IgG1, kappa, N297G, V domains shown) VH: EQQLQESGPGLVKPSETLSLTCTVTGFSLSSYTVNWVRQPAGKGLEWIGYISYGGSAYYASWANGRVTISKDSSKNQVSLKLSSVTAADTAVYFCARHMQVGGAPTGSMAAFDPWGPGTLVTVSS VL: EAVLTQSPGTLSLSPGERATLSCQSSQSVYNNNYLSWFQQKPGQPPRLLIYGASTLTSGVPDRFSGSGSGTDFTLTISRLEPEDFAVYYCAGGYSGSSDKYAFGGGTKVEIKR
11.17

Entry source: patent US20210301005A1
